measurement-target: DNA polymerase (UniProt P10443)
Sequence (P10443 whole entry): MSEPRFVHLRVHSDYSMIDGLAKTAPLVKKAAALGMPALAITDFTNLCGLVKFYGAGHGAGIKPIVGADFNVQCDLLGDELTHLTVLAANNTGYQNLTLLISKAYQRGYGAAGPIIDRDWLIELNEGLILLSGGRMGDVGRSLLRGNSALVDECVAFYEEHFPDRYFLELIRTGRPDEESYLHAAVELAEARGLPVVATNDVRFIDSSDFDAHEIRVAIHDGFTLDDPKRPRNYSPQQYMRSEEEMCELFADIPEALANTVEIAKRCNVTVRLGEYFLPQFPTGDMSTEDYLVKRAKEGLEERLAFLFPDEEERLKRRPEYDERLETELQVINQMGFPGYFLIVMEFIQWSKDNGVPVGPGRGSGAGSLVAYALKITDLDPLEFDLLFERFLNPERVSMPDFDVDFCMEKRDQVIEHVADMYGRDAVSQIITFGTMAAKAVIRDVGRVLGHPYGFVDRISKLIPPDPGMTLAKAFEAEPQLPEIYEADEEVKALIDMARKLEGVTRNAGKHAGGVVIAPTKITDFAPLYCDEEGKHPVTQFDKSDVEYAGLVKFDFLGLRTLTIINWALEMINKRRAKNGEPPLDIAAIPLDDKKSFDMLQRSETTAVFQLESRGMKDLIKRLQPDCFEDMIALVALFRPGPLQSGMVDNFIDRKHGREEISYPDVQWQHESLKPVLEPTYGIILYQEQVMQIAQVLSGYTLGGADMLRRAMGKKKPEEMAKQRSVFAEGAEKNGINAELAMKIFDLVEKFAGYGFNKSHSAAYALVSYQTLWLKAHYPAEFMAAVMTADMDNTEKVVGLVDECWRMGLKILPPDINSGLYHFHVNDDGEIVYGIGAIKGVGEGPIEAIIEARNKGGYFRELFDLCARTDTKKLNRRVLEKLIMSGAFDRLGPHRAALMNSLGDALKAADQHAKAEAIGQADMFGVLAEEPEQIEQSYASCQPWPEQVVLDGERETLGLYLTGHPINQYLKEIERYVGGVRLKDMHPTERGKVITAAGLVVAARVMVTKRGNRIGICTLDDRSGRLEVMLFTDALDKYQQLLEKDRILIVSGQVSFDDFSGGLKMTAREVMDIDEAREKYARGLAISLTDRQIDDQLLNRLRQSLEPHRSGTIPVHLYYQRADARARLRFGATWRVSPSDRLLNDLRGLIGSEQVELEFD
measurement-notes: relative enzymatic activity vs untreated control (fraction); higher = less inhibition
measurement-conditions: 100 µM; incubation time: 2 h at 37 C
Entries and their relative enzymatic activity
recorded-metric: relative enzymatic activity

- compound: "CCC1OC(=O)C(C)C(OC2CC(C)(OC)C(O)C(C)O2)C(C)C(OC2OC(C)CC(N(C)C)C2O)C(C)(O)CC(C)CN(C)C(C)C(O)C1(C)O (configuration not stated)"
  measurement-target: "DNA polymerase (UniProt P10443)"
  reported-measurement: 1.11
- compound: "NC[C@H]1O[C@H](O[C@H]2[C@H](O)[C@@H](O[C@H]3O[C@H](CO)[C@@H](O)[C@H](N)[C@H]3O)[C@H](N)C[C@@H]2N)[C@H](N)C[C@@H]1O"
  measurement-target: "DNA polymerase (UniProt P10443)"
  reported-measurement: 1.19
- compound: "NCCONC(=O)[C@@H]1CC[C@@H]2CN1C(=O)N2OS(=O)(=O)O"
  measurement-target: "DNA polymerase (UniProt P10443)"
  reported-measurement: 1.13
- compound: "CC(N)O.Cc1cc(CC(C)CC(C)(C)C)n(O)c(=O)c1 (configuration not stated)"
  measurement-target: "DNA polymerase (UniProt P10443)"
  reported-measurement: 1.16
- compound: "CN(C)[C@@H]1C(=O)[C@@H](C(N)=O)C(=O)[C@@]2(O)C(=O)[C@H]3C(=O)c4c(O)ccc(Cl)c4[C@@H](O)[C@H]3C[C@@H]12"
  measurement-target: "DNA polymerase (UniProt P10443)"
  reported-measurement: 1.17
- compound: "CC1(C)S[C@@H]2[C@H](NC(=O)[C@H](NC(=O)N3CCNC3=O)c3ccccc3)C(=O)N2[C@H]1C(=O)O"
  measurement-target: "DNA polymerase (UniProt P10443)"
  reported-measurement: 1.06
- compound: "COC1C=COC2(C)Oc3c(C)c(O)c4c(O)c(c5c(nc6cc(C)ccn65)c4c3C2=O)NC(=O)C(C)=CC=CC(C)C(O)C(C)C(O)C(C)C(OC(C)=O)C1C (configuration not stated)"
  measurement-target: "DNA polymerase (UniProt P10443)"
  reported-measurement: 1.11

* * *

measurement-target: Guanlyate kinase (UniProt Q0TBG1)
Sequence (Q0TBG1 whole entry): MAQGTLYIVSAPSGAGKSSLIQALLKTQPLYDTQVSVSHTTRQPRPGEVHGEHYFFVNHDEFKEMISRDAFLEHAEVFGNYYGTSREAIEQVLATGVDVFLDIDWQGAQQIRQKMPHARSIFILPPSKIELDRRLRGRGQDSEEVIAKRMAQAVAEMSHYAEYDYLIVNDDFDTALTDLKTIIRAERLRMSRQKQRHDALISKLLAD
measurement-notes: relative enzymatic activity vs untreated control (fraction); higher = less inhibition
measurement-conditions: 100 µM; incubation time: 2 h at 37 C

- compound: "C=CC1=C(C(=O)O)N2C(=O)C(NC(=O)C(=NO)c3csc(N)n3)C2SC1 (stereo not drawn)"
  measurement-target: "Guanlyate kinase (UniProt Q0TBG1)"
  relative enzymatic activity: 0.917
- compound: "CC(C)[C@@H](CC[C@@H](C)[C@H]1CC[C@H]2[C@@H]3[C@H](O)C[C@H]4C[C@@H](NCCCNCCCCN)CC[C@]4(C)[C@H]3CC[C@]12C)OS(=O)(=O)O"
  measurement-target: "Guanlyate kinase (UniProt Q0TBG1)"
  relative enzymatic activity: 0.231
- compound: "Cc1cc(C2CCCCC2)n(O)c(=O)c1.NCCO"
  measurement-target: "Guanlyate kinase (UniProt Q0TBG1)"
  relative enzymatic activity: 1.05
- compound: "CCOC(=O)OC(C)OC(=O)C1N2C(=O)C(NC(=O)C(N)c3ccccc3)C2SC1(C)C.Cl (stereo not drawn)"
  measurement-target: "Guanlyate kinase (UniProt Q0TBG1)"
  relative enzymatic activity: 0.975
- compound: "CC(C)(C)CC(C)(C)c1ccc(OCCOCC[N+](C)(C)Cc2ccccc2)cc1.[Cl-]"
  measurement-target: "Guanlyate kinase (UniProt Q0TBG1)"
  relative enzymatic activity: 0.439
- compound: "NC(=O)[C@@H]1C(=O)C[C@@H]2C[C@@H]3Cc4cccc(O)c4C(=O)[C@@H]3C(=O)[C@]2(O)C1=O"
  measurement-target: "Guanlyate kinase (UniProt Q0TBG1)"
  relative enzymatic activity: 0.796
- compound: "CC[C@@H]1OC(=O)[C@H](C)[C@@H](O[C@H]2C[C@@](C)(OC)[C@@H](O)[C@H](C)O2)[C@H](C)[C@@H](O[C@@H]2O[C@H](C)C[C@H](N(C)C)[C@H]2O)[C@](C)(O)C[C@@H](C)/C(=N\\OCOCCOC)[C@H](C)[C@@H](O)[C@]1(C)O"
  measurement-target: "Guanlyate kinase (UniProt Q0TBG1)"
  relative enzymatic activity: 0.922
- compound: "NC(=O)[C@@H]1CC[C@@H]2CN1C(=O)N2OS(=O)(=O)O"
  measurement-target: "Guanlyate kinase (UniProt Q0TBG1)"
  relative enzymatic activity: 0.947
- compound: "NCc1ccccc1CC(=O)NC1C(=O)N2C(C(=O)O)=C(CSc3nnnn3CC(=O)O)CSC12 (stereo not drawn)"
  measurement-target: "Guanlyate kinase (UniProt Q0TBG1)"
  relative enzymatic activity: 0.988
- compound: "Nc1c2ccccc2nc2ccccc12"
  measurement-target: "Guanlyate kinase (UniProt Q0TBG1)"
  relative enzymatic activity: 0.311
- compound: "O=[N+]([O-])c1ccc(O)c2ncccc12"
  measurement-target: "Guanlyate kinase (UniProt Q0TBG1)"
  relative enzymatic activity: 0.765
- compound: "CCN1CCN(C(=O)NC(C(=O)NC2C(=O)N3C(C(=O)O)=C(CSc4nnnn4C)CSC23)c2ccc(O)cc2)C(=O)C1=O (stereo not drawn)"
  measurement-target: "Guanlyate kinase (UniProt Q0TBG1)"
  relative enzymatic activity: 0.828
- compound: "CC(NCCCc1cccc(C(F)(F)F)c1)c1cccc2ccccc12.Cl (stereo not drawn)"
  measurement-target: "Guanlyate kinase (UniProt Q0TBG1)"
  relative enzymatic activity: 1.01
- compound: "Cc1cc(O)c(C(=O)NC(C(=O)NC2C(=O)N3C(C(=O)O)=C(CSc4nnnn4C)CSC23)c2ccc(O)cc2)cn1 (stereo not drawn)"
  measurement-target: "Guanlyate kinase (UniProt Q0TBG1)"
  relative enzymatic activity: 0.925
- compound: "CN(C)c1ccc(O)c2c1CC1CC3C(N(C)C)C(O)=C(C(N)=O)C(=O)C3(O)C(O)=C1C2=O.Cl (stereo not drawn)"
  measurement-target: "Guanlyate kinase (UniProt Q0TBG1)"
  relative enzymatic activity: 0.577
- compound: "Cn1sccc1=O"
  measurement-target: "Guanlyate kinase (UniProt Q0TBG1)"
  relative enzymatic activity: 0.903
- compound: "Cc1cn(C2CC(N=[N+]=[N-])C(CO)O2)c(=O)[nH]c1=O (stereo not drawn)"
  measurement-target: "Guanlyate kinase (UniProt Q0TBG1)"
  relative enzymatic activity: 0.865
- compound: "Cc1oc(=O)oc1CN1CCN(c2cc3c(cc2F)c(=O)c(C(=O)O)c2n3C(C)S2)CC1 (stereo not drawn)"
  measurement-target: "Guanlyate kinase (UniProt Q0TBG1)"
  relative enzymatic activity: 1.12
